The reported numbers originate from patent US20260098026A1.

Molecular target: M1 muscarinic acetylcholine receptor (mAChR) (Homo sapiens)
Construct: expressed in transfected cells; host or cells: CHO-K1
Sequence (P11229 whole entry): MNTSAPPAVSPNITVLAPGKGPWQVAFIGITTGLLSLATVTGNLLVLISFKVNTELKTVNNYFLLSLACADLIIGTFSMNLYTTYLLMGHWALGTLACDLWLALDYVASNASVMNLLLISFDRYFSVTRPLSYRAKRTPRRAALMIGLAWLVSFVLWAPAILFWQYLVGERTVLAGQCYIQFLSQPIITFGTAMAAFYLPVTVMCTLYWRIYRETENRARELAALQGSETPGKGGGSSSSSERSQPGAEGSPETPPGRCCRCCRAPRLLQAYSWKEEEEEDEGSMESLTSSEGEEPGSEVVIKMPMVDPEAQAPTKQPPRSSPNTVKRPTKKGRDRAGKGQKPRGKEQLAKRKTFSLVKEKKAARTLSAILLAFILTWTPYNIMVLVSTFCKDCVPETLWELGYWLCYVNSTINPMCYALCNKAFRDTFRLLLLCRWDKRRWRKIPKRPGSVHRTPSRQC
Assay: FLIPR calcium assay (Fluo 8), M1-overexpressing CHO-K1 cells
Format: cell-based
Settings: FLIPR
Experimental: Stimulation of a Gq-coupled G-protein coupled receptors (GPCRs), result in an efflux of calcium from the endoplasmic reticulum to the cytoplasm (Berridge, 1993), thus rendering this assay appropriate for the assessment of M1, M3 and M5 receptors. […] Compounds diluted in Hanks' balanced salt solution (HBSS) were transferred to the cell assay plate at 10 μl per well, and then read on a FLIPR instrument. EC50 and Emax figures were calculated from the resulting data for each receptor subtype.
Measured Emax of individual entries

COMPOUND	TARGET OR SYSTEM	Emax
CCOC(=O)N1CC2(CC[C@@H](N3CCN(c4cc(F)cnc4-c4c[nH]c(=O)c(F)c4)CC3)C2)C1 [Compound A206]	M1 muscarinic acetylcholine receptor (mAChR) (Homo sapiens)	19 to 49.9%
CCOC(=O)N1CC2(CC[C@@H](N3CCN(c4cc(F)cnc4-c4cnc(C)nc4)CC3)C2)C1 [Compound A185]	M1 muscarinic acetylcholine receptor (mAChR) (Homo sapiens)	19 to 49.9%
CCOC(=O)N1CC2(CC[C@@H](N3CCN(c4cc(F)cnc4-c4cnc(OC(C)C)nc4)CC3)C2)C1 [Compound A158]	M1 muscarinic acetylcholine receptor (mAChR) (Homo sapiens)	19 to 49.9%

Now turn to the next compound.
Reading of Emax for CCOC(=O)N1CC2(CC[C@@H](N3CCN(c4cc(F)cnc4-c4ccc(=O)[nH]c4)CC3)C2)C1 [Compound A210] with M1 muscarinic acetylcholine receptor (mAChR) (Homo sapiens): 50 to 79.9%

---

biological target: M4 mAChR (Homo sapiens); construct: expressed in transfected cells; host or cells: CHO-K1; test: cAMP TR-FRET assay with forskolin, M4-overexpressing CHO-K1 cells; assay type: cell-based; conditions: cAMP assay
MEASURED METRIC: Emax

COMPOUND	Emax
CCOC(=O)N1CC2(CC[C@@H](N3CCN(c4cc(F)cnc4-c4ncccc4F)CC3)C2)C1 [Compound A283]	80 to 100%
CCOC(=O)N1CC2(CC[C@@H](N3CCN(c4cc(F)cnc4-c4ccc(C)nn4)CC3)C2)C1 [Compound A241]	50 to 79.9%
CCOC(=O)N1CC2(CC[C@@H](N3CCN(c4cc(F)cnc4-c4ccn(C(F)F)n4)CC3)C2)C1 [Compound A198]	50 to 79.9%
CCOC(=O)N1CC2(CC[C@@H](N3CCN(c4cc(F)cnc4-c4ccc(=O)[nH]c4)CC3)C2)C1 [Compound A210]	80 to 100%
CCOC(=O)N1CC2(CC[C@@H](N3CCN(c4cc(F)cnc4-c4nncs4)CC3)C2)C1 [Compound A236]	80 to 100%

Value of measured Emax for the entry CCOC(=O)N1CC2(CC[C@@H](N3CCN(c4cc(F)cnc4-c4ccnc(F)n4)CC3)C2)C1 [Compound A284] : 80 to 100%

Value of measured Emax for the entry CCOC(=O)N1CC2(CC[C@@H](N3CCN(c4cc(F)cnc4-c4nccnc4OC)CC3)C2)C1 [Compound A238] : 19 to 49.9%

Value of measured Emax for the entry CCOC(=O)N1CC2(CC[C@@H](N3CCN(c4cc(F)cnc4-c4ccc(OC)nc4)CC3)C2)C1 [Compound A188] : 80 to 100%

Value of measured Emax for the entry CCOC(=O)N1CC2(CC[C@@H](N3CCN(c4cc(F)cnc4-c4ccc(OC)cc4C#N)CC3)C2)C1 [Compound A152] : 80 to 100%

Value of measured Emax for the entry CCOC(=O)N1CC2(CC[C@@H](N3CCN(c4cc(F)cnc4-c4ccc(C)cn4)CC3)C2)C1 [Compound A228] : 80 to 100%

---

Measured Emax of individual entries
Target: M4 mAChR (Homo sapiens, UniProt P08173)
Construct: expressed in transfected cells; host or cells: CHO-K1
Sequence (P08173 1-479): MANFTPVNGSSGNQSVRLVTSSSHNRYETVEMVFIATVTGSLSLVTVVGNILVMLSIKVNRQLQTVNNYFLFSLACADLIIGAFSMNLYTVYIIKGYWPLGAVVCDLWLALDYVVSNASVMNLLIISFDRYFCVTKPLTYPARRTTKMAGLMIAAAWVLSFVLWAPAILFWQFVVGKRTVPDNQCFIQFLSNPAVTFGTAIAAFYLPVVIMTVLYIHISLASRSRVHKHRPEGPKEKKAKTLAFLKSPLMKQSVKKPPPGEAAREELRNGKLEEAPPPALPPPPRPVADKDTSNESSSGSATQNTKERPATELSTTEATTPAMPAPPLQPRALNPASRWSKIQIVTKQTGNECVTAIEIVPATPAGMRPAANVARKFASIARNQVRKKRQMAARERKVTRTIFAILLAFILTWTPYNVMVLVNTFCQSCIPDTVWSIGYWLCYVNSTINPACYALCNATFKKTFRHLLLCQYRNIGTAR
Experiment: cAMP TR-FRET assay with forskolin, M4-overexpressing CHO-K1 cells
Assay type: cell-based
Conditions: cAMP assay

MOLECULE	TARGET OR SYSTEM	Emax
CCOC(=O)N1CC2(CC[C@@H](N3CCN(c4cc(Cl)cnc4-c4cccnn4)CC3)C2)C1	M4 mAChR (Homo sapiens, UniProt P08173)	80 to 100%
CCOC(=O)N1CC2(CC[C@@H](N3CCN(c4cc(F)cnc4-c4cnn(C(C)(C)C)c4)CC3)C2)C1	M4 mAChR (Homo sapiens, UniProt P08173)	50 to 79.9%
CCOC(=O)N1CC2(CCC(N3CCN(c4cccnc4N4CCC(C#N)CC4)CC3)C2)C1 (stereo not shown)	M4 mAChR (Homo sapiens, UniProt P08173)	80 to 100%
CCOC(=O)N1CC2(CC[C@@H](N3CCN(c4cc(F)cnc4C4CCN(C)CC4)CC3)C2)C1	M4 mAChR (Homo sapiens, UniProt P08173)	80 to 100%

Reading of Emax for CCOC(=O)N1CC2(CC[C@@H](N3CCN(c4cc(F)cnc4-c4cnn(CCF)c4)CC3)C2)C1 with M4 mAChR (Homo sapiens, UniProt P08173): 80 to 100%

Reading of Emax for CCOC(=O)N1CC2(CC[C@@H](N3CCN(c4cc(F)cnc4-c4ccsn4)CC3)C2)C1 with M4 mAChR (Homo sapiens, UniProt P08173): 80 to 100%

Reading of Emax for CCOC(=O)N1CC2(CC[C@@H](N3CCN(c4cc(F)cnc4-c4ccc(C)c(CO)c4)CC3)C2)C1 with M4 mAChR (Homo sapiens, UniProt P08173): 50 to 79.9%

Reading of Emax for CCOC(=O)N1CC2(CC[C@@H](N3CCN(c4cc(Cl)cnc4-c4ccc(C)nn4)CC3)C2)C1 with M4 mAChR (Homo sapiens, UniProt P08173): 80 to 100%

Reading of Emax for CCOC(=O)N1CC2(CC[C@@H](N3CCN(c4cc(F)cnc4-c4cnn(COC)c4)CC3)C2)C1 with M4 mAChR (Homo sapiens, UniProt P08173): 80 to 100%

Reading of Emax for CCOC(=O)N1CC2(CC[C@@H](N3CCN(c4cc(Cl)cnc4-c4cnc(C)nc4)CC3)C2)C1 with M4 mAChR (Homo sapiens, UniProt P08173): 80 to 100%
